All figures here come from the RNAGym collection of RNA variant scans (doi:10.1093/molbev/msab373).

B1: Azoarcus group I ribozyme (parent)
chain: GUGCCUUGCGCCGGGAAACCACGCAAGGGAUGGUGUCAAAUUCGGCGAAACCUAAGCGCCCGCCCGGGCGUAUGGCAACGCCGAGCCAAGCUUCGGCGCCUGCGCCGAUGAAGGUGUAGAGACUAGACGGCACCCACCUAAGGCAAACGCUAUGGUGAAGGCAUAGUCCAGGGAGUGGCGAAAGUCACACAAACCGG

variants of: B1; test: reverse-splicing fitness (ratio to wild type); higher = more active; in vitro selection; Mg2+ level not given
experimental-endpoint: reverse-splicing fitness
One number for each entry.

{"mutation-label": "C82U A111G C150U U176A", "reverse-splicing fitness": 0.102}
{"mutation-label": "C82A A111C A120G A145U C150A C169A U176A", "reverse-splicing fitness": 0.0115}
{"mutation-label": "A111U A120U A145U C150G C169U U176G", "reverse-splicing fitness": 0.00222}
{"mutation-label": "A111C A120C A145C C169U U176G", "reverse-splicing fitness": 0.006}
{"mutation-label": "C82A A111G A120G A145G C150U C169A U176C", "reverse-splicing fitness": 0.0174}

# batch: return reverse-splicing fitness for each of the 5 variants below
1. A111C A120G A145C C150U C169A U176C
2. A111G A120G A145G C150A C169A U176A
3. C82G A111U A120U A145G U176A
4. C82A A111C A120G A145G C150G C169G
5. C82A A111C A120U A145G C150A C169A U176C

Result string:
[0.011, 0.0193, 0.0121, 0.00706, 0.00537]
